# logP values compiled below
# ASSAY_SUMMARY: Lipophilicity, log P of the compound
# Format: physicochemical
# EXPERIMENTAL_CONDITIONS: octanol/water

These solved cases illustrate the format of a correct answer.
• Clc1ccc2c(c1)[C@@H]1OCCC[C@@H]1[C@H](c1ccc3oc4ccccc4c3c1)N2 (relative stereo) = 4.49
• Fc1ccc2c(c1)[C@@H]1OCCC[C@@H]1[C@H](c1ccc3oc4ccccc4c3c1)N2 (relative stereo) = 4.09
• Cc1ccc2c(c1)[C@@H]1OCCC[C@@H]1[C@H](c1ccc3oc4ccccc4c3c1)N2 = 4.42
• Brc1ccc2c(c1)[C@@H]1OCCC[C@@H]1[C@@H](c1ccc3oc4ccccc4c3c1)N2 (relative stereo) = 4.76
• Brc1ccc2c(c1)[C@@H]1OCCC[C@@H]1[C@H](c1ccc3oc4ccccc4c3c1)N2 (relative stereo) = 4.76

// recorded logP for Cn1c2ccccc2c2cc([C@@H]3Nc4ccccc4[C@@H]4OCCC[C@H]34)ccc21 (relative stereo) : 4.1

// recorded logP for COc1ccc2c(c1)[C@@H]1OCCC[C@@H]1[C@@H](c1ccc3c(c1)c1ccccc1n3C)N2 (relative stereo) : 3.97

// recorded logP for COc1ccc2c(c1)[C@@H]1OCCC[C@@H]1[C@@H](c1ccc3oc4ccccc4c3c1)N2 (relative stereo) : 3.81
